test: Kinetic solubility in bio-relevant media (SGF, FaSSIF, FeSSIF) and H2O at 37° C.; type: physicochemical; conditions: FeSSIF, 37 °C, pH 5, fessif, thermodynamic from solid, FeSSIF (pH 5.0), 24 hr
resultType: solubility at 24 h (mg/mL)
Answer in mg/mL, number only, no unit symbol.

*Q* Which solubility at 24 h reading was recorded for the compound CN1C(=O)[C@@H](NC(=O)c2nnc(Cc3ccccc3)[nH]2)COc2cccnc21 [Form A] ?
*A* 0.12

* * *

test: Kinetic solubility in bio-relevant media (SGF, FaSSIF, FeSSIF) and H2O at 37° C.; assay type: physicochemical; conditions: FeSSIF, 37 °C, pH 5, fessif, thermodynamic from solid, FeSSIF (pH 5.0), 4 hr
resultType: solubility at 4 h (µg/mL)
Answer in µg/mL, number only, no unit symbol.

*Q* Which solubility at 4 h reading was recorded for the compound CN1C(=O)[C@@H](NC(=O)c2nnc(Cc3ccccc3)[nH]2)COc2cccnc21 [Form A] ?
*A* 120
